# Test system: HCT-15 colon
# Experimental Protocol: NCI tumour cell line growth inhibition, 48 h
Experimental Readout: TGI

Below are worked cases with known answers.
- Compound: "COC(=O)c1c2c(c[n+]([O-])c1C)C(=O)C(NCc1ccccc1)=CC2=O"
  Readout Value: "1.53 µM"
- Compound: "CC(C)=C1C(=O)C[C@]2(C)C/C=C(\\C)CC/C=C(\\C)CC[C@@H]12"
  Readout Value: "15.4 µM"
- Compound: "CN(C)c1ccc(/C=C2\\C[C@H]3[C@@H]4CCC5=CC(=O)CC[C@]5(C)[C@H]4CC[C@]3(C)C2=O)cc1"
  Readout Value: "> 100 µM"
- Compound: "Cc1cc(NC(=O)NC(=O)c2ccccc2[N+](=O)[O-])ccc1Oc1ncc(Cl)cn1"
  Readout Value: "> 100 µM"
- Compound: "CC(C)=CCC/C(C)=C/CC/C(C)=C/[C@@H]1[C@@H](CO)[C@]1(C)CC/C=C(\\C)CCC=C(C)C"
  Readout Value: "> 100 µM"

Give TGI for all compounds that follow.
1. C/C(=N/NC(=S)N1CCCCCC1)c1ccccc1O
2. COc1cc(/C=C2\N=C(c3ccccc3)N(c3nc4c(Cl)cc(Cl)cc4s3)C2=O)ccc1O
3. CC(C)(C)OC(=O)N1C(C2=COc3ccccc3O2)=COc2cccnc21
4. O=S1c2ccccc2N=C(c2ccc3ccccc3c2)CC1c1ccccc1 (centres undefined)

> 100 µM
> 100 µM
3.46 µM
32.5 µM
